Hi there, I'd appreciate the recorded relative permittivity for every entry that follows.
- assayNotes: relative permittivity at various frequencies (dimensionless)
- studyConditions: 318.15 K; 101.3 kPa; Liquid; Frequency=0.1 MHz; Coaxial cylinder capacitor
Answers are plain numbers.

State recorded relative permittivity for all listed compounds.
1. OCCCCO [1,4-butanediol]
2. C1COCCO1 [1,4-dioxane]
3. CC(C)CCO [3-methylbutan-1-ol]

Reply:
1: 27.203; 2: 2.187; 3: 12.051

Task item: What value of relative permittivity has been recorded for this entry: CCCCCO [pentan-1-ol]
Reply: 12.391

----------
- assayNotes: refractive index (Na D-line) (dimensionless)
- studyConditions: 308.15 K; 101.3 kPa; Liquid; Standard Abbe refractometry
Numbers after ± are expanded uncertainties.
valueType: refractive index

> print(dat)
   compoundsmiles      assayresult
1          CCCCCO  1.4041 ± 0.0011

State recorded refractive index for all listed molecules.
1. C1COCCO1
2. CC(C)CCO
3. OCCCCO

Reply:
1: 1.4144 ± 0.001; 2: 1.4011 ± 0.0011; 3: 1.4417 ± 0.0011
